B1: ARL6IP1 (parent)
chain: YLDPSVLSGVSCFVMFLCLADYLV

- Variants of: B1
- assay-comment: protein stability index of a GFP-peptide fusion (GPS, HEK-293T) (PSI 1-6); higher = more stable;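 also: lentivirally expressed fusions sorted by FACS into six bins by GFP to DsRed ratio, PSI derived from sequencing read proportions per bin multiplied by bin number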
- recorded-conditions: c terminus: a fixed tail appended
readout-type: protein stability index
Keep it simple and answer with nothing but the number.

*Q* Determine its reported protein stability index: D3E
*A* 1.94

*Q* For the variant V10Y , give its measured protein stability index value.
*A* 2.38

*Q* # return recorded protein stability index for input S8H
*A* 3.58

*Q* Give the reported value of protein stability index for this record: L2P
*A* 2.76

*Q* Recall and state the measured protein stability index for C12F .
*A* 2.47

*Q* Return value of protein stability index for input D21I , no commentary.
*A* 3.5

*Q* Give protein stability index for M15K
*A* 3.66

*Q* Specify protein stability index for F13K and stop.
*A* 2.38

*Q* Answer with the recorded protein stability index for the variant listed here: P4M
*A* 3.45

*Q* State its protein stability index for this variant: S5P
*A* 3.19

*Q* Identify measured protein stability index corresponding to L2Q
*A* 2.09

Reference source: the supplement of paper PMC10567573
